Biological target: Neutrophil elastase (Homo sapiens) (UniProt P08246)
Sequence (whole entry): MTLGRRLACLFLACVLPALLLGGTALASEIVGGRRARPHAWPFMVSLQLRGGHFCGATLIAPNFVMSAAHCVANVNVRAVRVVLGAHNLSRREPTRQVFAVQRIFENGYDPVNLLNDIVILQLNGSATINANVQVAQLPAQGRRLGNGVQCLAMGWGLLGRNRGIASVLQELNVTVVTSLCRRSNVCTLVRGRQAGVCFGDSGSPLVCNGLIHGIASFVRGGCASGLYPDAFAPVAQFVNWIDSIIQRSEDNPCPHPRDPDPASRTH
quantity_name: K inact (M⁻¹ s⁻¹)

Worked examples, 4 compounds total:
compound	K inact [M⁻¹ s⁻¹]
CC(C)Oc1cccc2c1C(=O)N(CSc1nnnn1-c1ccccc1)S2(=O)=O	8900
CC(=O)OCN1C(=O)c2ccccc2S1(=O)=O	630
CCOc1cccc2c1C(=O)N(CSc1nnnn1-c1ccccc1)S2(=O)=O	45300
Cn1cnnc1SCN1C(=O)c2ccccc2S1(=O)=O	190

a. O=C1c2c(-c3ccccc3)cccc2S(=O)(=O)N1CSc1nnnn1-c1ccccc1
b. O=C1c2ccccc2S(=O)(=O)N1CSc1nnnn1C1CCCCC1
Q: Field: lower K inact | Options: a / b Give the chosen item's label as your response.
Result: b
